- targetEntity: acetylcholine receptor
- experiment: SPR, peptide at 10 µM on acetylcholine receptor
readoutName: Binding affinity (RU)

KRQLR [5mer-97]    52
KLQYR [5mer-59]    68
KRRRK [5mer-394]    66
RSVQK [5mer-367]    71
KRLLR [5mer-66]    80
KSQLK [5mer-353]    59
KGVLK [5mer-85]    74
RGRRK [5mer-95]    68
RSFLK [5mer-386]    78
KVRSK [5mer-358]    50
KSLQR [5mer-393]    75
RLVTR [5mer-53]    50
RLLQR [5mer-70]    69
KVVCR [5mer-396]    53
RVRLK [5mer-92]    62
RLILK [5mer-61]    66
KWRRK [5mer-370]    67
